Each recorded value in this set is attributed to patent US20150105316A1.

# tested on: T1, human angiotensin 2 type 1 receptor (human, UniProt P30556 1-359)
# T1 sequence (looked up): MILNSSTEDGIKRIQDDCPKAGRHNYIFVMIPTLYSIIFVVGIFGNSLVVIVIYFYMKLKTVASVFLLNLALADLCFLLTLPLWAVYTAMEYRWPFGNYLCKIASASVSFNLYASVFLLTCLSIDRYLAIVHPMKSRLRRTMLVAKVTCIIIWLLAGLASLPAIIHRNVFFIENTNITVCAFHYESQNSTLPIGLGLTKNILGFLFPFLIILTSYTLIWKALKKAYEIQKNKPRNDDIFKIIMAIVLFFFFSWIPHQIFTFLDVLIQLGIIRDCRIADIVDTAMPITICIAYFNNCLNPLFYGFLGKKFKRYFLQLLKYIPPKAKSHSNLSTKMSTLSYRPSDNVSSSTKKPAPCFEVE
# assay notes: cell-based or functional assay
Where no end group is shown, it is not given here. [ ]: non-standard residue; d: D form. Tle = CC(C)(C)[C@H](N)C(=O)O; Ac6c = NC1(C(=O)O)CCCCC1; cyHex = not defined here; Ac5c = NC1(C(=O)O)CCCC1; Sar = CNCC(=O)O
measured endpoint: IP1 G-protein assay Span

- binder: "[Sar]RVY[Ac6c]HPR [SEQ ID NO: 42 (Sar-Arg-Val-Tyr-cyHex-His-Pro-Arg)]"
  measured endpoint: "IP1 G-protein assay Span"
  observed result: "< 103"
- binder: "[Sar]RVYPHPF [SEQ ID NO: 10 (Sar-Arg-Val-Tyr-Pro-His-Pro-Phe)]"
  measured endpoint: "IP1 G-protein assay Span"
  observed result: "< 103"
- binder: "[Sar]RVY[Ac5c]HPI [SEQ ID NO: 18 (Sar-Arg-Val-Tyr-cyPen-His-Pro-Ile)]"
  measured endpoint: "IP1 G-protein assay Span"
  observed result: "< 103"
- binder: "[Sar]RVY[cyHex]HPA (reading uncertain; also: printed as Sar-Arg-Val-Tyr-cyHex-His-Pro-Ala) [SEQ ID NO: 2 (Sar-Arg-Val-Tyr-cyHex-His-Pro-Ala)]"
  measured endpoint: "IP1 G-protein assay Span"
  observed result: "< 103"
- binder: "[Sar]RVY[Ac6c]HPY [SEQ ID NO: 55 (Sar-Arg-Val-Tyr-cyHex-His-Pro-Tyr)]"
  measured endpoint: "IP1 G-protein assay Span"
  observed result: "< 103"
- binder: "[Sar]RVY[Ac6c]HPM [SEQ ID NO: 16 (Sar-Arg-Val-Tyr-cyHex-His-Pro-Met)]"
  measured endpoint: "IP1 G-protein assay Span"
  observed result: "< 103"
- binder: "[Sar]RVYPHPI [SEQ ID NO: 4 (Sar-Arg-Val-Tyr-Pro-His-Pro-Ile)]"
  measured endpoint: "IP1 G-protein assay Span"
  observed result: "< 103"
- binder: "[Sar]RVY[Ac6c]HP[Tle] [SEQ ID NO: 56 (Sar-Arg-Val-Tyr-cyHex-His-Pro-AA02)]"
  measured endpoint: "IP1 G-protein assay Span"
  observed result: "< 103"
- binder: "[Sar]RVY[Ac6c]HPL [SEQ ID NO: 12 (Sar-Arg-Val-Tyr-cyHex-His-Pro-Leu)]"
  measured endpoint: "IP1 G-protein assay Span"
  observed result: "< 103"
- binder: "[Sar]RVY[Ac6c]HPW [SEQ ID NO: 54 (Sar-Arg-Val-Tyr-cyHex-His-Pro-Trp)]"
  measured endpoint: "IP1 G-protein assay Span"
  observed result: "< 103"
- binder: "[Sar]RVYPHPV [SEQ ID NO: 6 (Sar-Arg-Val-Tyr-Pro-His-Pro-Val)]"
  measured endpoint: "IP1 G-protein assay Span"
  observed result: "< 103"
